# Method summary: Stress experiments of d-NTP solutions at 35° C., triphosphate content by HPLC
# Type: physicochemical
# Condition details: pH 8.3 compared to pH 7.5, 35° C., three independent stress experiments, samples between 7 and 89 days
Measured metric: stabilization, average value (%)
Use % as the unit, but write only the number.

| Compound | Readout units | stabilization, average value |
| --- | --- | --- |
| O=c1ccn([C@H]2C[C@H](O)[C@@H](COP(=O)(O)OP(=O)(O)OP(=O)(O)O)O2)c(=O)[nH]1 [d-UTP] | % | 5 |
| Nc1ccn([C@H]2C[C@H](O)[C@@H](COP(=O)(O)OP(=O)(O)OP(=O)(O)O)O2)c(=O)n1 [d-CTP] | % | 20 |
| Nc1ncnc2c1ncn2[C@H]1C[C@H](O)[C@@H](COP(=O)(O)OP(=O)(O)OP(=O)(O)O)O1 [d-ATP] | % | 19 |

stabilization, average value recorded for this compound, Nc1nc2c(ncn2[C@H]2C[C@H](O)[C@@H](COP(=O)(O)OP(=O)(O)OP(=O)(O)O)O2)c(=O)[nH]1 [d-GTP] , is 21

stabilization, average value for Cc1cn([C@H]2C[C@H](O)[C@@H](COP(=O)(O)OP(=O)(O)OP(=O)(O)O)O2)c(=O)[nH]c1=O [d-TTP] is 5

----------
# Method summary: Stress experiments of d-NTP solutions at 35° C., triphosphate content by HPLC
# Format: physicochemical
# Condition details: pH 8.3 compared to pH 7.5, 35° C., three independent stress experiments, samples between 7 and 89 days
# Description: d-NTP solutions at a concentration of 100 to 110 mmol/l were adjusted to pH values between 7.5 and 8.3 with sodium hydroxide solution. The sample was stored at 35° C., 22° C., 4° C. and −20° C. Aliquots were removed at various time points and the purity was examined by means of HPLC. The relative amount of the tri, di and monophosphate as well as of the free base was determined by integrating the areas. […]
# stabilization, minimum value >= 20% gives True, anything below gives False

# example entries with known answers
| Compound string | Category |
| --- | --- |
| Nc1ccn([C@H]2C[C@H](O)[C@@H](COP(=O)(O)OP(=O)(O)OP(=O)(O)O)O2)c(=O)n1 | False |
| Cc1cn([C@H]2C[C@H](O)[C@@H](COP(=O)(O)OP(=O)(O)OP(=O)(O)O)O2)c(=O)[nH]c1=O | True |
| Nc1nc2c(ncn2[C@H]2C[C@H](O)[C@@H](COP(=O)(O)OP(=O)(O)OP(=O)(O)O)O2)c(=O)[nH]1 | False |
| O=c1ccn([C@H]2C[C@H](O)[C@@H](COP(=O)(O)OP(=O)(O)OP(=O)(O)O)O2)c(=O)[nH]1 | True |

Could you verify whether the entry `Nc1ncnc2c1ncn2[C@H]1C[C@H](O)[C@@H](COP(=O)(O)OP(=O)(O)OP(=O)(O)O)O1` shows stabilization, minimum value of no less than 20%?
False

----------
# Method summary: Stress experiments of d-NTP solutions at 35° C., triphosphate content by HPLC
# Type: physicochemical
# Condition details: pH 8.3 compared to pH 7.5, 35° C., three independent stress experiments, samples between 7 and 89 days
# Method: d-NTP solutions at a concentration of 100 to 110 mmol/l were adjusted to pH values between 7.5 and 8.3 with sodium hydroxide solution. The sample was stored at 35° C., 22° C., 4° C. and −20° C. Aliquots were removed at various time points and the purity was examined by means of HPLC. The relative amount of the tri, di and monophosphate as well as of the free base was determined by integrating the areas. […]
Quick rule for you: stabilization, maximum value under 30% gets True, anything else gets False.

Please review the entries below; each comes with its answer.
| Compound | Category |
| --- | --- |
| O=c1ccn([C@H]2C[C@H](O)[C@@H](COP(=O)(O)OP(=O)(O)OP(=O)(O)O)O2)c(=O)[nH]1 [d-UTP] | True |
| Nc1ncnc2c1ncn2[C@H]1C[C@H](O)[C@@H](COP(=O)(O)OP(=O)(O)OP(=O)(O)O)O1 [d-ATP] | False |
| Cc1cn([C@H]2C[C@H](O)[C@@H](COP(=O)(O)OP(=O)(O)OP(=O)(O)O)O2)c(=O)[nH]c1=O [d-TTP] | True |

As a next step, examine the compound that follows.
Does the reported stabilization, maximum value of the following compound sit strictly below 30%? Nc1ccn([C@H]2C[C@H](O)[C@@H](COP(=O)(O)OP(=O)(O)OP(=O)(O)O)O2)c(=O)n1 [d-CTP]
False
